# Test system: NEK11
# measurementConditions: concentration: 1 μM, replicates: in singlicate; n = 1
observedProperty: %Inh (%)
Respond numerically; units are % and should not be typed.

Consider the worked cases shown below.
# %Inh of COc1cccc(-c2cc(-c3c[nH]nc3-c3ccccn3)ccn2)c1 [GW680338] = 0

Record COc1ccc(CNC(=O)NC2CCN(c3ccnc(Nc4cc(OC)c(OC)c(OC)c4)n3)C2)cc1 (centres unmarked) [GSK1379748] . Reported %Inh: 18

Entry O=C(Nc1n[nH]c2nc(-c3nccs3)c(Br)cc12)C1CC1 [SB-742251] ; %Inh = 48

Measured %Inh, COc1cc2ncn(-c3cc(OCC4CCCO4)c(C(N)=O)s3)c2cc1OC (centres unmarked) [GSK204607] : 0

---
Sample CSc1nn2c(=O)cc(N3CCOCC3)nc2n1Cc1cccc(C(F)(F)F)c1C [GSK2363608] ; %Inh observed: 0

----------
# Tested on: AURKC;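 further: kd values determined as follow-up on hits from a single-replicate KINOMEscan panel screen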
Listed here: items and their measured Kd.
# number only, unit nM dropped from output

Some compounds with known Kd results, for comparison:
Record Cn1ccc2ncnc(Oc3ccc(NC(=O)Nc4ccccc4)cc3)c21 ; system AURKC; Kd = 110

Item Cc1ccc(C(=O)Nc2ccc(Nc3ccnc4cc(-c5ccccn5)ccc34)cc2O)cc1.Cl ; assay system AURKC; Kd reported as 500

Now examine the next entry.
Note to self: Kd of COc1cc(Nc2nccc(N3CCC(NC(=O)Nc4cc(C)ccc4C)C3)n2)cc(OC)c1OC (centres unmarked) with AURKC was 200

----------
# Test system: LTK
# measurementConditions: concentration: 1 μM, replicates: in singlicate; n = 1
observedProperty: %Inh (%)
Write it as a number; the unit % goes unstated.

// field: %Inh; key: CC1=C(C(=O)Nc2cc3cn[nH]c3cc2F)C(c2ccc(C(F)(F)F)cc2)CC(=O)N1 (stereo not drawn) ; value = 0

Query Fc1cc(Cl)ccc1Nc1ccnc2cc(I)ccc12 yields %Inh of 13

Per the records, this molecule ( COc1ccc(Nc2nccc(-c3cccc(NC(=O)c4cc5cc(F)ccc5[nH]4)c3)n2)cc1 ) has %Inh equal to 19

// %Inh lookup, molecule = O=C(Nc1ccccc1)Nc1cccc(Oc2ccc3nccn3n2)c1 , result: 0

Notebook: O=S(=O)(c1ccc(-c2ccnc3[nH]ccc23)cc1)N1CCCC1 , %Inh read as 0

Record COc1cccc(NC(=O)NC2CCN(c3ccnc(Nc4ccc(F)cc4)n3)C2)c1 (stereo not drawn) . Reported %Inh: 0

The recorded %Inh for Cc1nnc(-c2ccc3occ(-c4ccc(S(C)=O)cc4)c3c2)[nH]1 (stereo not drawn) is 0

Input CS(=O)(=O)c1ccc(-c2nc3n(c2-c2ccncc2)CCC3)cc1 . Output %Inh: 0

%Inh in this record for Cc1cc(N2Cc3ccccc3C2)nc(Nc2ccc(S(=O)(=O)N3CCOCC3)cc2)n1.Cl : 0

----------
# Tested on: CAMK2A
# measurementConditions: concentration: 1 μM, replicates: in singlicate; n = 1
Lab note: anything with %Inh at or over 2% counts as yes; the rest go in no.

As a guide, the following entries are already answered.
## Input API: above_or_equal(metric=%Inh, cutoff=2%) for item CC(C)(C)c1ccc(C(=O)Nc2cn3cc(Cl)ccc3n2)cc1
## Output yes

## Input Please check the record Fc1cccc(COc2nnc(-c3ccc4c(c3)CCO4)o2)c1 and state if its %Inh is at or above 2%.
## Output no

## Input Given Cc1cccc(-c2nc(Nc3ccncc3)c3ccccc3n2)n1 , state whether its %Inh is at least 2%.
## Output yes

Next:
## Input Check the entry COC(=O)c1c(-c2ccccc2)c2cc(OC)ccc2c(=O)n1Cc1ccccc1 : does %Inh equal or exceed 2%?
## Output yes
